- subject-of-test: T1, human C1s (human, UniProt P09871 16-688)
- T1 construct: Analyte in the Biacore assays; also called hC1s; serum-derived human C1s (CompTech)
- T1 sequence: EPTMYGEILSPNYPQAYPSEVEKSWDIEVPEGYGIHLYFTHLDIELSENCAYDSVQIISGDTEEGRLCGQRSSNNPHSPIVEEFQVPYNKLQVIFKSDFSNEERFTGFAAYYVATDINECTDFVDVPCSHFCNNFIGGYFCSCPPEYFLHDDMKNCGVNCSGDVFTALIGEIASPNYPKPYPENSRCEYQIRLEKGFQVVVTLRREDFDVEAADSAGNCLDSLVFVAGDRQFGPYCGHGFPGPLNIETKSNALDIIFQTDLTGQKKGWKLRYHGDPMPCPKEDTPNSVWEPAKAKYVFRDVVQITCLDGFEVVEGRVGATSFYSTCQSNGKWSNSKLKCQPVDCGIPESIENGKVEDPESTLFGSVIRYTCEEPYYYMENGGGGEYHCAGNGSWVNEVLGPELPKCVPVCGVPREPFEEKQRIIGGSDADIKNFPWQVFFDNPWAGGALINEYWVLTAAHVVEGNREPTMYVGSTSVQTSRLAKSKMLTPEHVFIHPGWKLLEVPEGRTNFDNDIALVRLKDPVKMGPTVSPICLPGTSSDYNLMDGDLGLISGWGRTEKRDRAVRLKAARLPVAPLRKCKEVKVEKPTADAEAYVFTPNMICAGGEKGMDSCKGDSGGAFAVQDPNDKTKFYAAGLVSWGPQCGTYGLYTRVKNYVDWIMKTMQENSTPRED
- assay-details: SPR (Biacore T200, 37C), Ab captured on protein A/G; pH 5.8, 1.2 mM Ca
reported-endpoint: pKd
Note on units: pKd is unitless, being -log10 of a concentration expressed in mol/L.

Solved cases below.
- C1_IPN92H0231-SG4GK/IPN93L0024-SK1 (antibody, human IgG4 S228P, kappa, name in Kabat numbering, V domains shown, Substitutions from IPN009VH2, Kabat numbering; also called IPN92H0231/IPN93L0024) VH: EVMLVESGGGLVKPGGSLRLSCAASGFTFSNYAMSWVRQAPGKGLEWVATISSGGSHTYYLDSVKGRFTISRDNSKDTLYLQMNSLRAEDTALYYCARLFTKHAMDYWGQGTLVTVSS VL: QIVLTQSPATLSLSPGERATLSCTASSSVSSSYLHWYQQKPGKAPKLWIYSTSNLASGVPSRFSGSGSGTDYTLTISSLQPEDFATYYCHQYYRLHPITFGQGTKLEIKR: 8.02
- C1_IPN92H0282-SG4GK/IPN93L0091-SK1 (antibody, human IgG4 S228P, kappa, name in Kabat numbering, V domains shown, Substitutions from IPN009VH2 / IPN009VK3, Kabat numbering; also called IPN92H0282/IPN93L0091) VH: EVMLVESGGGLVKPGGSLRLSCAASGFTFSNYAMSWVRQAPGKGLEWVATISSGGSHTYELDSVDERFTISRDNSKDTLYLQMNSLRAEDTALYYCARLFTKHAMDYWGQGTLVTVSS VL: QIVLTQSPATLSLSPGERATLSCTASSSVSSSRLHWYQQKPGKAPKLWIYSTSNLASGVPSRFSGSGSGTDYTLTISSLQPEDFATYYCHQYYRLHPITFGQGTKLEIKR: 7.77

Would you kindly look at the next entry?
Would you mind telling me what pKd value was observed for C1_IPN92H0147-SG4GK/IPN93L0024-SK1 (antibody, human IgG4 S228P, kappa, name in Kabat numbering, V domains shown, Substitutions from IPN009VH2, Kabat numbering; also called IPN92H0147/IPN93L0024) VH: EVMLVESGGGLVKPGGSLRLSCAASGFTFSNYAMSWVRQAPGKGLEWVATISSGGSHDYYLDSVKGRFTISRDNSKDTLYLQMNSLRAEDTALYYCARLFTGHAMDYWGQGTLVTVSS VL: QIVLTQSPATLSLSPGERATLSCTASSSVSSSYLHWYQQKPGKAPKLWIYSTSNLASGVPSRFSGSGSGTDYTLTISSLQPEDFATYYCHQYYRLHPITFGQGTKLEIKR ?
7.88

meta.source: patent US20210032365A1
